Biological target: Serine/threonine-protein kinase Chk2 (Homo sapiens, UniProt O96017)
Sequence (O96017 whole entry): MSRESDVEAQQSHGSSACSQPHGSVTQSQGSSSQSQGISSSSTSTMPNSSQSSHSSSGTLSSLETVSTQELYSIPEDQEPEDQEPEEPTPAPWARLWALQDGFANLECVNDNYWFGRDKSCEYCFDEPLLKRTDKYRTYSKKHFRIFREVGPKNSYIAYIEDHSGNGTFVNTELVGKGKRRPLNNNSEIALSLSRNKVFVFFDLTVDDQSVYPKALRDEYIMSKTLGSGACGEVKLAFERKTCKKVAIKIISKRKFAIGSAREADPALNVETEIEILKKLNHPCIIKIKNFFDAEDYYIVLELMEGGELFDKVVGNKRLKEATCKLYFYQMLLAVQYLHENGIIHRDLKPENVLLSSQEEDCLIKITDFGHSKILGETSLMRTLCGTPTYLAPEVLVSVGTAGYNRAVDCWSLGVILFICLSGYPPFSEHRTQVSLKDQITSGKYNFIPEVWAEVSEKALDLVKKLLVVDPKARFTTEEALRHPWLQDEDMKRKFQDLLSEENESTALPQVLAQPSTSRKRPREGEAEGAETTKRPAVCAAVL
Experiment: Inhibition of CHK2 (unknown origin) at 30 uM by microfluidic mobility shift assay relative to control
attribute.measured: inhibition (%)
Kindly provide the numeric value in % only, without the unit symbol.

Guide cases for inhibition, answers given:
c1nc(N2CCC3(CCCOC3)CC2)c2nc[nH]c2n1	28
OCC1CCC2(CCN(c3ncnc4[nH]cnc34)CC2)NC1 (racemic)	56
O=S(=O)(c1cccc2cnccc12)N1CCC2(CCC(O)CN2)CC1 (racemic)	59

Query string: Give the observed inhibition of O=S(=O)(c1cccc2cnccc12)N1CCC2(CCCN2)CC1 for Serine/threonine-protein kinase Chk2 (Homo sapiens, UniProt O96017).
Result string: 50

Query string: Give the observed inhibition of c1nc(N2CCCC3(CCNCC3)C2)c2nc[nH]c2n1 for Serine/threonine-protein kinase Chk2 (Homo sapiens, UniProt O96017).
Result string: 35

Query string: Give the observed inhibition of OC1CCC2(CCN(c3ncnc4[nH]cnc34)CC2)NC1 (racemic) for Serine/threonine-protein kinase Chk2 (Homo sapiens, UniProt O96017).
Result string: 53
